Target: mixture of the GluN1b and GluN2B ATD proteins (Xenopus laevis (GluN1-4b ATD) / Rattus norvegicus (GluN2B ATD), UniProt A0A1L8F5J9+Q00960, E186G/INS190SKKRNYENLDQLSYDNKRGPK/N350Q/N61Q)
Sequence (Q00960 31-394, stated change not applied, other chains not shown): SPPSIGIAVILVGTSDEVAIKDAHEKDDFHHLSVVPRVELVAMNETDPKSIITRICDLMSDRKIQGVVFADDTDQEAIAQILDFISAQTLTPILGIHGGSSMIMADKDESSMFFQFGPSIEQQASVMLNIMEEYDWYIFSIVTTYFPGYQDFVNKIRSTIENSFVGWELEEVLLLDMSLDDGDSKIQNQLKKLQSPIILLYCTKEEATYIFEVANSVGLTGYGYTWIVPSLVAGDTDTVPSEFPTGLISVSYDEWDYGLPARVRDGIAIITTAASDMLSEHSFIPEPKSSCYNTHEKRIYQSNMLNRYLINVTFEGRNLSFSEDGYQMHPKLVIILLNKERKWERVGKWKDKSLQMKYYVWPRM
Test: Isothermal titration calorimetry (ITC), direct binding to mixed ATD proteins
Parameters: species or system Xenopus laevis GluN1-4b / Rattus Norvegicus GluN2B
Details: ITC, mixture of GluN1b and GluN2B ATD proteins; read-out: Kd
measure: pKd
The meaning of pKd here: minus log10 of the concentration in molar units.

Ask | For the molecule `C[C@@H](CN1CCC(Cc2ccccc2)CC1)[C@@H](O)c1ccc(O)cc1` , what pKd is on record?
Reply | 7.22
